assay: GFP drop in mixed WT/humanized-ribosome E. coli culture – GFP/RFP fluorescence, OD600, single point, bacterial rRNA inhibitor project, primary screen (AID 720706); details: E. coli WT GFP vs humanized-ribosome RFP mutants, 24 h, DMSO median 0, no signal -100
Out of some 350,000 compounds screened, about 5,500 (1.6%) were called active.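 The calls were made as follows: active = significant combined selectivity score with lowered wild-type GFP, culture density cut under 30%, mutant RFP and density less affected; inactive = any of these conditions unmet.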 Only a selection was taken, and actives are over-represented in it overall.
Just give me one of these, please: true for active, false for inactive

Please indicate how the test categorized CC1CN(S(=O)(=O)c2ccc(C(=O)Nc3sccc3C(N)=O)cc2)CC(C)O1 (stereo not drawn) .
false

GET /call?item= `COc1ccc(CCNc2ncnc3c2nnn3Cc2ccccc2)cc1` returns the recorded outcome of this test.
false

Answer briefly: the call reported for `Cc1nc(-c2ccc([N+](=O)[O-])cc2)c(-c2ccccc2)o1` in this assay.
true

For CC1CCCCC12NC(=O)N(CC(=O)OCC(=O)NCc1ccc(F)cc1)C2=O (stereo not drawn) , what call appears in the results of this test?
false

Call for entry `COc1ccc(Br)cc1CN1CCN(C(=O)c2cccc(OC)c2OC)CC1` :
true

Each molecule tested received a call. Report the one for `CCCNC(=O)N(C)C[C@H]1Oc2ncc(-c3ccc(C(=O)N(C)C)cc3)cc2C(=O)N([C@@H](C)CO)C[C@@H]1C` .
false

Could you check what this test reported for `COCC(=O)N1CC(=O)N2[C@H](C1)[C@H](c1ccc(C#CC3CCCCC3)cc1)[C@@H]2CO` ?
false

Hi team, can someone confirm the assay call for `O=C(C[C@H]1CC[C@@H]2[C@H](COC[C@@H](O)CN2Cc2cccc(-c3ccncc3)c2)O1)N1CCOCC1` ?
false

Give the logged outcome of this assay for the following molecule: `CC(C)CNc1ncnc2c1cnn2Cc1ccc(Cl)cc1`
true

# outcome recorded in this test, key = `COc1ccccc1N1CCN(Cc2cc(OC)c3c(c2)OCO3)CC1`
false

Call for entry `Cc1n[nH]c(=O)nc1N/N=C/c1cccs1` :
false

Can you look up the reported call for `COc1ccc2c3c(n(C)c2c1)[C@H](CO)NCC31CN(S(=O)(=O)c2cccc(C)c2)C1` for me?
false

Identify the outcome logged in this assay for the molecule shown: `Cc1ccccc1NC(=O)c1cc(S(=O)(=O)Nc2cccc(C(=O)O)c2)ccc1Cl`
false

Test call for this molecule, please: `COc1ccccc1-c1cnc2c(c1)C(=O)N([C@@H](C)CO)C[C@H](C)[C@@H](CN(C)C(C)=O)O2`
false

Field: outcome | Entry: `O=C(C[C@H]1C=C[C@H](NC(=O)C2CCC2)[C@H](CO)O1)NCCCN1CCOCC1`
false

Hey, what did the test say about `C[C@H]1CN([C@@H](C)CO)C(=O)c2cccc(NC(=O)c3ccncc3)c2O[C@@H]1CN(C)C` ?
false

For this molecule, state the assay outcome: `COc1ccc(CN2CCN(Cc3ccc(OC)c(OC)c3OC)CC2)cc1`
false

Dear all, I need the recorded test outcome for `C[C@@H]1CN([C@@H](C)CO)C(=O)Cc2cc(NS(=O)(=O)c3ccc(Cl)cc3)ccc2O[C@H]1CN(C)C(=O)Nc1cccc2ccccc12` , thank you.
false

Short answer needed: outcome of this test for COc1cccc(CNC(=O)COC(=O)CN2C(=O)NC3(CCCCC3C)C2=O)c1 (stereo not drawn) ?
false

Hi, sorry to bother you, what did the test record for `CCCNC(=O)Nc1ccc2c(c1)C(=O)N(C)C[C@H](OC)[C@H](C)CN(Cc1ccncc1)[C@H](C)CO2` ?
false

Test call, this molecule: CC1CCCCC12NC(=O)N(CC(=O)OCc1c(F)cccc1Cl)C2=O (stereo not drawn)
true

Give the logged outcome of this assay for the following molecule: `CCOC(=O)N1CCN(C(=O)c2ccccc2N(Cc2ccccc2)S(=O)(=O)c2ccc(OC)cc2)CC1`
true

Each molecule tested received a call. Report the one for `COc1ccc(-c2nn(-c3ccccc3)cc2/C=C\C(=O)N2CCOCC2)cc1[N+](=O)[O-]` .
false

For this molecule, state the assay outcome: `Cn1nc(-c2ccccc2)c2cc([N+](=O)[O-])ccc21`
false

Called result for `COc1cccc(S(=O)(=O)N2CCCCN3[C@H](CO)[C@H](c4ccc(C#CC5CC5)cc4)[C@H]3C2)c1`
false

# fetch the recorded call for `C[C@H]1CCCCO[C@H](CN(C)C(=O)Nc2ccccc2)[C@@H](C)CN([C@@H](C)CO)C(=O)c2cc(NC(=O)c3ccncc3)ccc2O1` here
false

Tell me the recorded outcome of this test for `C[C@H](CO)N1C[C@H](C)[C@H](CN(C)S(C)(=O)=O)Oc2ncc(C3=CCCC3)cc2C1=O` .
false

Assay outcome for COc1ccc(C(=O)C2CCCN(C(=O)c3ccc(OC)o3)C2)c(C)c1 (stereo not drawn) : what was it?
false

Recorded test call requested for `C[C@@H]1CN([C@H](C)CO)C(=O)c2cc(C#CC3CC3)cnc2O[C@H]1CN(C)C(=O)CC1CC1`
false

Which outcome did this test record for the molecule `O=C(C[C@H]1C[C@@H]2c3cc(NS(=O)(=O)c4ccc(F)cc4)ccc3O[C@@H]2[C@H](CO)O1)NCc1cccc(F)c1` ?
false

Tell me the recorded outcome of this test for `NC(=O)c1ccccc1N(Cc1ccccc1)S(=O)(=O)c1ccccc1` .
false

Per the assay record, what outcome was assigned to `COc1ccc2c3c(n(C)c2c1)[C@H](CO)NCC31CN(Cc2cc(F)ccc2F)C1` ?
false

What classification did `O=C(/C=C/c1cn(-c2ccccc2)nc1-c1ccc2c(c1)OCCO2)NCCCN1CCOCC1` end up with in this test?
false
